assay: in vitro; settings: human
Measured attribute: CC50 at 5 days

Item: CS(=O)(=O)CCCn1c(Cn2c(=O)n(CC(F)(F)F)c3ccncc32)cc2cc(Cl)ccc21 [JNJ-53718678] | CC50 at 5 days: > 100 µM

---

assay: in vitro; conditions: African green monkey
Measured attribute: CC50

Form: compound = "CS(=O)(=O)CCCn1c(Cn2c(=O)n(CC(F)(F)F)c3ccncc32)cc2cc(Cl)ccc21" ; CC50 = > 100 µM

---

tested on: HRV 16; assay: HRV assay (CPE, HeLa RH cells), HRV 16; details: Rhinovirus A, read-out: EC50 HRV 16
Measured attribute: EC50

The reported EC50 value, HRV 16, for CS(=O)(=O)CCCn1c(Cn2c(=O)n(CC(F)(F)F)c3ccncc32)cc2cc(Cl)ccc21 [JNJ-53718678] reads > 100 µM

---

assay: in vitro; settings: African green monkey
Measured attribute: CC50 at 2 days

The value of CC50 at 2 days measured for the compound "CS(=O)(=O)CCCn1c(Cn2c(=O)n(CC(F)(F)F)c3ccncc32)cc2cc(Cl)ccc21" turned out to be > 100 µM

---

assay: in vivo; settings: 10 mg/kg
Measured attribute: Cmax (ng/mL)
The answer is to be given in ng/mL; state only the numeric part.

Lab note: measured Cmax of CS(=O)(=O)CCCn1c(Cn2c(=O)n(CC(F)(F)F)c3ccncc32)cc2cc(Cl)ccc21 [JNJ-53718678] was 254

---

target: prefusion-stabilized RSV F protein (DS-Cav1) (Human respiratory syncytial virus A, UniProt P03420, I379V/M447V/S155C/S190F/S290C/V207L); construct: purification tags incl; experiment: biochemical; settings: ITC; read-out: equilibrium dissociation constant (KD)
Measured attribute: Kd (nM)
Your answer is read as nM, so omit the unit and give the number.

What the record says about CS(=O)(=O)CCCn1c(Cn2c(=O)n(CC(F)(F)F)c3ccncc32)cc2cc(Cl)ccc21 [JNJ-53718678] : Kd is 7.4

---

assay: in vivo; details: 10 mg/kg, AUC0-7 lung
Measured attribute: AUC(0-t) (ng·h/mL)
Number only, in ng·h/mL; omit the unit.

Per the record, CS(=O)(=O)CCCn1c(Cn2c(=O)n(CC(F)(F)F)c3ccncc32)cc2cc(Cl)ccc21 [JNJ-53718678] has AUC(0-t) of 2020

---

tested on: rgRSV224 D489Y mutant strain; assay type: cell-based, respiratory syncytial virus; settings: rgRSV224 carrying a D489Y resistance mutation in F; read-out: EC50 (mutant RSV)
Measured attribute: EC50

Note to self: EC50 recorded for "CS(=O)(=O)CCCn1c(Cn2c(=O)n(CC(F)(F)F)c3ccncc32)cc2cc(Cl)ccc21" was 4.1 µM

---

experiment: in vivo; details: male, Beagle, dog, in vivo, po, 5 mg/kg
Measured attribute: Tmax
Don't forget the unit after the number, please.

# compound CS(=O)(=O)CCCn1c(Cn2c(=O)n(CC(F)(F)F)c3ccncc32)cc2cc(Cl)ccc21 [JNJ-53718678] ; its Tmax = 1.7 h

---

assay: in vivo; conditions: 10 mg/kg, AUC0-7 plasma
Measured attribute: AUC(0-t) (ng·h/mL)
State the answer as a number, implicitly in ng·h/mL.

For CS(=O)(=O)CCCn1c(Cn2c(=O)n(CC(F)(F)F)c3ccncc32)cc2cc(Cl)ccc21 [JNJ-53718678] the compound record lists AUC(0-t) as 680

Provenance of the data: paper PMC5537225
